Test system: P. aeruginosa
Non-standard residues stand in square brackets, D forms with d. Residues, ends and D or L forms follow the SMILES beside them. Dab = NCC[C@H](N)C(=O)O

COMPOUND: CC[C@H](C)[C@@H]1NC(=O)[C@H](Cc2c[nH]c3ccccc23)NC(=O)[C@H]([C@@H](C)O)NC(=O)[C@@H]2CCCN2C(=O)[C@H]2CCCN2C(=O)[C@H](CCN)NC(=O)[C@@H](C(C)C)NC(=O)[C@H](CCN)NC(=O)[C@H](CCN)NC(=O)[C@H](Cc2c[nH]c3ccccc23)NC(=O)[C@H](CCN)NC(=O)[C@H](CCN)NC(=O)[C@H](CCCCN)NC(=O)[C@H](CCN)NC1=O [Example 4] (cyclo(TWI[Dab]K[Dab][Dab]W[Dab][Dab][dV][Dab][dP]P))
TARGET_OF_ASSAY: P. aeruginosa
CENSORING_SIGN: >
Average MIC [mg/L]: 1

COMPOUND: CC[C@H](C)[C@@H]1NC(=O)[C@H](Cc2c[nH]c3ccccc23)NC(=O)[C@H]([C@@H](C)O)NC(=O)[C@@H]2CCCN2C(=O)[C@H]2CCCN2C(=O)[C@H](CCN)NC(=O)[C@H]([C@@H](C)CC)NC(=O)[C@H](CCN)NC(=O)[C@H](CCN)NC(=O)[C@H](Cc2c[nH]c3ccccc23)NC(=O)[C@H](CCN)NC(=O)[C@H](CCN)NC(=O)[C@H](CCCCN)NC(=O)[C@H](CCN)NC1=O [Example 8] (cyclo(TWI[Dab]K[Dab][Dab]W[Dab][Dab]I[Dab][dP]P))
TARGET_OF_ASSAY: P. aeruginosa
CENSORING_SIGN: =
Average MIC [mg/L]: 0.23

---

RUN_DESCRIPTION: in vivo
Design: species or system CD-1 mice
ASSAY_CONTEXT: mouse, iv, 1 mg/kg
Non-standard residues stand in square brackets, D forms with d. Residues, ends and D or L forms follow the SMILES beside them. Dab = NCC[C@H](N)C(=O)O

COMPOUND: CC[C@H](C)[C@@H]1NC(=O)[C@H](Cc2c[nH]c3ccccc23)NC(=O)[C@H]([C@@H](C)O)NC(=O)[C@@H]2CCCN2C(=O)[C@H]2CCCN2C(=O)[C@H](CCN)NC(=O)[C@H](C)NC(=O)[C@H](CCN)NC(=O)[C@H](CCN)NC(=O)[C@H](Cc2c[nH]c3ccccc23)NC(=O)[C@H](CCN)NC(=O)[C@H](CCN)NC(=O)[C@H](CCCCN)NC(=O)[C@H](CCN)NC1=O [Example 1] (cyclo(TWI[Dab]K[Dab][Dab]W[Dab][Dab]A[Dab][dP]P))
AUC(0-inf) (ng·h/mL): 680

---

Tested on: P. aeruginosa ATCC 27853
Type: cell-based, Pseudomonas aeruginosa
ASSAY_CONTEXT: ATCC 27853
Non-standard residues stand in square brackets, D forms with d. Residues, ends and D or L forms follow the SMILES beside them. Cha = N[C@@H](CC1CCCCC1)C(=O)O; dDab = NCC[C@@H](N)C(=O)O; Orn = NCCC[C@H](N)C(=O)O; Dab = NCC[C@H](N)C(=O)O
Exam item: assign Y to entries whose MIC P. aeruginosa ATCC 27853 is below 0.04 µg/mL and N to entries at or above 0.04 µg/mL. Note that a value of exactly 0.04 µg/mL receives N.

MOLECULE: CC[C@H](C)[C@@H]1NC(=O)[C@H](Cc2c[nH]c3ccccc23)NC(=O)[C@H]([C@@H](C)O)NC(=O)[C@@H]2CCCN2C(=O)[C@H]2CCCN2C(=O)[C@H](CCN)NC(=O)[C@H](C)NC(=O)[C@H](CCN)NC(=O)[C@H](CCN)NC(=O)[C@H](Cc2c[nH]c3ccccc23)NC(=O)[C@H](CCN)NC(=O)[C@@H](CCN)NC(=O)[C@H](CCCN)NC(=O)[C@H](CCN)NC1=O [Example 48] (cyclo(TWI[Dab][Orn][dDab][Dab]W[Dab][Dab]A[Dab][dP]P))
ASSIGNED_LABEL: Y

MOLECULE: C[C@@H]1NC(=O)[C@H](CCN)NC(=O)[C@H](CCN)NC(=O)[C@H](Cc2c[nH]c3ccccc23)NC(=O)[C@H](CCN)NC(=O)[C@H](CCN)NC(=O)[C@H](CCCCN)NC(=O)[C@H](CCN)NC(=O)[C@H](CC2CCCCC2)NC(=O)[C@H](Cc2c[nH]c3ccccc23)NC(=O)[C@H]([C@@H](C)O)NC(=O)[C@@H]2CCCN2C(=O)[C@H]2CCCN2C(=O)[C@H](CCN)NC1=O [Example 34] (cyclo(TW[Cha][Dab]K[Dab][Dab]W[Dab][Dab]A[Dab][dP]P))
ASSIGNED_LABEL: N

MOLECULE: CC[C@H](C)[C@@H]1NC(=O)[C@H](Cc2c[nH]c3ccccc23)NC(=O)[C@H](CCC(=O)O)NC(=O)[C@@H]2CCCN2C(=O)[C@H]2CCCN2C(=O)[C@H](CCC(N)=O)NC(=O)[C@H](C)NC(=O)[C@H](CCN)NC(=O)[C@H](CCN)NC(=O)[C@H](Cc2c[nH]c3ccccc23)NC(=O)[C@H](CCN)NC(=O)[C@@H](CCN)NC(=O)[C@H](CCCCN)NC(=O)[C@H](CCN)NC1=O [Example 45] (cyclo(EWI[Dab]K[dDab][Dab]W[Dab][Dab]AQ[dP]P))
ASSIGNED_LABEL: N

MOLECULE: CC[C@H](C)[C@@H]1NC(=O)[C@H](Cc2c[nH]c3ccccc23)NC(=O)[C@H]([C@@H](C)O)NC(=O)[C@@H]2CCCN2C(=O)[C@H]2CCCN2C(=O)[C@H](CO)NC(=O)[C@H](C)NC(=O)[C@H](CCN)NC(=O)[C@H](CCN)NC(=O)[C@H](Cc2c[nH]c3ccccc23)NC(=O)[C@H](CCN)NC(=O)[C@@H](CCN)NC(=O)[C@H](CCCN)NC(=O)[C@H](CCN)NC1=O [Example 49] (cyclo(TWI[Dab][Orn][dDab][Dab]W[Dab][Dab]AS[dP]P))
ASSIGNED_LABEL: Y

---

RUN_DESCRIPTION: Plasma stability, rat plasma
Type: in vitro ADME
Non-standard residues stand in square brackets, D forms with d. Residues, ends and D or L forms follow the SMILES beside them. hSer = N[C@@H](CCO)C(=O)O; Dab = NCC[C@H](N)C(=O)O
ENDPOINT_LABEL: Stability rat Plasma t1/2 (h)

COMPOUND: CC[C@H](C)[C@@H]1NC(=O)[C@H](Cc2c[nH]c3ccccc23)NC(=O)[C@H]([C@@H](C)O)NC(=O)[C@@H]2CCCN2C(=O)[C@H]2CCCN2C(=O)[C@H](CCN)NC(=O)[C@H](C)NC(=O)[C@H](CCN)NC(=O)[C@H](CCN)NC(=O)[C@H](Cc2c[nH]c3ccccc23)NC(=O)[C@H](CCN)NC(=O)[C@H](CCN)NC(=O)[C@H](CCCCN)NC(=O)[C@H](CCCCN)NC1=O [Example 24] (cyclo(TWIKK[Dab][Dab]W[Dab][Dab]A[Dab][dP]P))
ENDPOINT_LABEL: Stability rat Plasma t1/2
REPORTED_RESULT: 5
--
COMPOUND: CC[C@H](C)[C@@H]1NC(=O)[C@H](Cc2c[nH]c3ccccc23)NC(=O)[C@H](C)NC(=O)[C@@H]2CCCN2C(=O)[C@H]2CCCN2C(=O)[C@H](CCN)NC(=O)[C@H](C)NC(=O)[C@H](CCN)NC(=O)[C@H](CCN)NC(=O)[C@H](Cc2c[nH]c3ccccc23)NC(=O)[C@H](CCN)NC(=O)[C@H](CCN)NC(=O)[C@H](CCCCN)NC(=O)[C@H](CCN)NC1=O [Example 22] (cyclo(AWI[Dab]K[Dab][Dab]W[Dab][Dab]A[Dab][dP]P))
ENDPOINT_LABEL: Stability rat Plasma t1/2
REPORTED_RESULT: 5
--
COMPOUND: CC[C@H](C)[C@@H]1NC(=O)[C@H](Cc2c[nH]c3ccccc23)NC(=O)[C@H]([C@@H](C)O)NC(=O)[C@@H]2CCCN2C(=O)[C@H]2CCCN2C(=O)[C@H](CCN)NC(=O)[C@H](CCO)NC(=O)[C@H](CCN)NC(=O)[C@H](CCN)NC(=O)[C@H](Cc2c[nH]c3ccccc23)NC(=O)[C@H](CCN)NC(=O)[C@H](CCN)NC(=O)[C@H](CCCCN)NC(=O)[C@H](CCN)NC1=O [Example 35] (cyclo(TWI[Dab]K[Dab][Dab]W[Dab][Dab][hSer][Dab][dP]P))
ENDPOINT_LABEL: Stability rat Plasma t1/2
REPORTED_RESULT: 5

The values you see were collected from patent US9521846B2.
